Target: T1, full CSP protein (analyte of Example 12) (Plasmodium falciparum (isolate 3D7), UniProt Q7K740 19-374)
T1 construct: not shown: C-terminal tags
T1 sequence (Q7K740 19-374 limits assumed): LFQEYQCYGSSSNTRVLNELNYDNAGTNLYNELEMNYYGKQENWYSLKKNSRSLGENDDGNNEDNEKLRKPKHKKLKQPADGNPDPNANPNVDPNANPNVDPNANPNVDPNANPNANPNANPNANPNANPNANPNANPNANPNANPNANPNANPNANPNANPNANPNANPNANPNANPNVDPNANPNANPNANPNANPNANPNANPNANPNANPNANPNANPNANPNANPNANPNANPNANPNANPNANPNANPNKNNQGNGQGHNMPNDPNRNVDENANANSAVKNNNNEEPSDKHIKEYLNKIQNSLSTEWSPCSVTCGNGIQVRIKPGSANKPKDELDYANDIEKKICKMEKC
Assay: SPR, IgG1 from supernatant on anti-human IgG surface, CSP as analyte, 25 C, 1:1 fit

binder: CL-141791 (antibody, V domains shown, human IgG1, HEK (Expi293F) culture supernatant) VH: QVQLVQSGAEVKKPGASVKVSCRASGYTFTNYAMHWVRQAPGQRLEWMGWINAGNGYTKYSQKFQDRVTITRDTSATTAHMELSSLRSEDTAMYYCARDSFYDILTGPVYHYYGMDVWGQGTTVTVSS VL: QSALTQPDSVSGSPGQSITISCTGTSNDVGVYNHVSWYQQHPGKAPKLMIYDVSKRPSGVSNRFSGSKSGNTASLTISGLQAEDEADYYCCSYVGSSAWVFGGGTNLTVL
kon (M⁻¹ s⁻¹): 253000
